system: ABC-1; assay: relative viability (nuclei count vs DMSO), 5 days (fraction); higher = more cells survive; details: first compound 0.6325 µM
The following compounds are shown together with reported relative viability values.
Give the figure only, with no unit attached.

Please look up its relative viability: Cc1csc(=NC2CCCCC2)n1/N=C/c1ccc(O)c(O)c1O [MIM1] + O=C(CCCCCCC(=O)Nc1ccccc1)NO [Vorinostat] (partner 1 µM)
0.87

###

tested on: 201T; test: relative viability (nuclei count vs DMSO), 5 days (fraction); higher = more cells survive; settings: first compound 20 µM
The following molecules are shown together with reported relative viability values.
Give the figure only, with no unit attached.

The following molecules have reported results that may help.
Cc1csc(=NC2CCCCC2)n1/N=C/c1ccc(O)c(O)c1O [MIM1] + Cc1cc(Nc2cc(N3CCN(C)CC3)nc(Sc3ccc(NC(=O)C4CC4)cc3)n2)n[nH]1 [Tozasertib] (partner 0.1 µM)    0.377
Cc1csc(=NC2CCCCC2)n1/N=C/c1ccc(O)c(O)c1O [MIM1] + NC(=O)Nc1cc(-c2cccc(F)c2)sc1C(=O)N[C@H]1CCCNC1 [AZD7762] (partner 0.2 µM)    0.305

Read the next record carefully.
Please look up its relative viability: Cc1csc(=NC2CCCCC2)n1/N=C/c1ccc(O)c(O)c1O [MIM1] + O=C(c1cc(Cc2n[nH]c(=O)c3ccccc23)ccc1F)N1CCN(C(=O)C2CC2)CC1 [Olaparib] (partner 8 µM)
0.396

Source of measurements: the supplement of paper PMC10307832
